B1: Hairpin Ribozyme (parent)
chain: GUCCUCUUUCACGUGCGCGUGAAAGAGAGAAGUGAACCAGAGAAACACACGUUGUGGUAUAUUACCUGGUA

Variants of: B1
Test: self-cleavage, relative activity (ratio to wild type); higher = more cleavage; co-transcriptional
measurement-label: self-cleavage

Below, 3 variants whose answers are already recorded.
GUCCUCUUUCAGGUGCGCGUGAAAGAGAGAAAUGAACCAGAGAAACACACGUUGUGGUAUAUUACCUGGUA [C12G G32A] = 0.143
GUCCUCUUGCACGUGCGCGUGAAAGAGAGAAGUGUACCAGAGAAACACACGUUGUGGUAUAUUACCUGGUA [U9G A35U] = 0.631
GUCCUCUUUCACGUGCGCGUGAAAGAGAGAAGUGAACCCGAGAAACACACGCUGUGGUAUAUUACCUGGUA [A39C U52C] = 0.56

What does the record list as self-cleavage for GUCCUCUUUCACGUGCGGGUGAAAGAGAGAAGUGAACCAGAGAAACACACGUUGUGGUGUAUUACCUGGUA [C18G A59G] ?
0.284

What does the record list as self-cleavage for GUCCUCUUUCACGUGCGCGUGCAAGAGAGAAGUGAACCAGAGAACCACACGUUGUGGUAUAUUACCUGGUA [A22C A45C] ?
0.128

What does the record list as self-cleavage for UUCAUCUUUCACGUGCGCGUGAAAGAGAGAAGUGAACCAGAGAAACACACGUUGUGGUAUAUUACCUGGUA [G1U C4A] ?
0.202

What does the record list as self-cleavage for GUCCUAUUUCACGUGCGCGUGAAAGAGAGAAGUGAACCAGAGGAACACACGUUGUGGUAUAUUACCUGGUA [C6A A43G] ?
0.223

Data origin: the RNAGym collection of RNA variant scans (doi:10.7554/elife.80360)
